- experiment_summary: Volume of distribution at steady state in mouse at 2 mg/kg, iv
- Format: ADME, organism-based
- test_parameters: in vivo, read-out: Vdss
observed_property: Vd (L/kg)

query_smiles | recorded_measurement
CC(C)(O)C(=O)N[C@@H]1CC[C@@]2(S(=O)(=O)c3ccc(F)cc3)c3ccc(C(F)(C(F)(F)F)C(F)(F)F)cc3CC[C@@H]12 | 3

====

- experiment_summary: Metabolic stability in rat liver microsomes assessed as parent compound remaining; also: time not given here
- Format: ADME, Microsome
observed_property: Stabilty (%)

molecule | observed_property | recorded_measurement
CC(C)(N)CC(=O)N[C@@H]1CC[C@@]2(S(=O)(=O)c3ccc(F)cc3)c3ccc(C(F)(C(F)(F)F)C(F)(F)F)cc3CC[C@@H]12 | Stabilty | 89
O=C(CO)N[C@@H]1CC[C@@]2(S(=O)(=O)c3ccc(F)cc3)c3ccc(C(F)(C(F)(F)F)C(F)(F)F)cc3CC[C@@H]12 | Stabilty | 34
[2H]C([2H])([2H])N1C(=O)C(O)CC1C(=O)N[C@@H]1CC[C@@]2(S(=O)(=O)c3ccc(F)cc3)c3ccc(C(F)(C(F)(F)F)C(F)(F)F)cc3CC[C@@H]12 (single isomer, unassigned) | Stabilty | 100
CC(=O)NCC(=O)N[C@@H]1CC[C@@]2(S(=O)(=O)c3ccc(F)cc3)c3ccc(C(F)(C(F)(F)F)C(F)(F)F)cc3CC[C@@H]12 | Stabilty | 10
